Test system: MOLT-4 leukemia
Assay: NCI tumour cell line growth inhibition, 48 h
quantityMeasured: TGI

Past entries and their recorded results:
compoundStructure | TGI
Cn1ccn2c3nc4ccccc4nc3c(=O)c(C#N)c12 | > 100 µM
O=c1[nH]nc(-c2ccccc2)n1/N=C/c1ccncc1 | > 100 µM
COCC(=O)CP(=O)(OC)OC | > 100 µM
C=CCOc1ccccc1N=N/C(C#N)=N\Nc1ccccc1OCC=C | > 100 µM
Cc1cc(C)c(C[N+](C)(C)C)c(C)c1C | > 52.9 µM

Note: attention shifts to another entry.
query: Which measured TGI belongs to CCCCCC(=O)c1ccc2[nH]c3c(C)cc([N+](=O)[O-])c(C)c3c2c1 , tested on MOLT-4 leukemia?
result: > 100 µM
